- MEASUREMENT_PROTOCOL: yeast display, Sf9 membrane polyspecificity reagent, FACS + sequencing; frameworks hold sequencing errors

PRIMARY_SEQUENCE	polyreactivity (PSR sort gate)
QVQLVESGGGLVQAGGSLRLSCAASGSIFTYYAMGWYRQAPGKERELVAAISLDGGSTYYADSVKGRFTISRDNAKNTVYLQMNSLKPEDTAVYYCAADYRFIPYTYLYDYWGQGTQVTVSS	low polyreactivity
QVQLVESGGGLVQAGGSLRLSCAASGSIFSKNARGWYRQAPGKERELVAAISWSGDRTYYADSVKGRFTISRDNAKNTVYLQMNSLKPEDTAVYYCAADYTVKYGYWGQGTQVTVSS	high polyreactivity
QVQLVETGGGLVQAGGSLRLSSGASGFIFVRNAMGWYRQAPGKEREFVAAINSSGGRTYYADSVKGRFTISRDNANNTVNLQMNSLKPEDTAVYYCAARPQPKKFYYWGQGTQETVSS	high polyreactivity
QVQLVESGGGLVQAGGSLRLSCAASGFIFDPNAMGWYRLAPGKERELVAAISSSGGRTYYADSVKGRFTISRDNAKNTVYLQMNSLKPEDTAVYYCNARDYSGFQTGASAAFDYWGQGTQVTVSS	low polyreactivity
QVQVVESGGGLVQAGGSLRLSCAASGFTFPYYALGLYRQAPGKERELVAAITTGGSTYYSDSVKGRFTISRDNAKNTVYLQMNSLKPEDTAVYYCATGPSLWYRSSFRGEGDYWGQGTQVTVSS	low polyreactivity

* * *

- MEASUREMENT_PROTOCOL: yeast display, Sf9 membrane polyspecificity reagent, FACS + sequencing; frameworks hold sequencing errors
MEASUREMENT_LABEL: polyreactivity (PSR sort gate)

PRIMARY_SEQUENCE	MEASUREMENT_LABEL	OBS_VALUE
QVQLVESGGCLVQAGGSLRLSCAASGSIMYSYAMAWYRQAPGQERELVAAITGDGASTNYADYVKGRFTISRDNAKNTVYLQMNSLKPEDTAVYYCNAGRESDDVYEGSQRIGQFDYWGQGTQVTVSS	polyreactivity (PSR sort gate)	low polyreactivity
QVQLVESGGGLVQAGGSLRLSCAASGRTFPTNAMGWYRQAPGKERELVARISTRGGSTYYADSVKGRFTISRDNAKNTVYLQMNSLKPEDTAVYYCAARYQGNYRTDKYDYWGQGTQVTVSS	polyreactivity (PSR sort gate)	high polyreactivity
QVQLVESGGGLVQAGGSLRLSCAASGFILPIYAMGWYRQAPGKEREFVAAITWTGGSTYYADSVKGRFTISRDNANNTVYLQMNSLKPEDTAVYYCNAEGRSYYYIIYDFWGQGTQVTVSS	polyreactivity (PSR sort gate)	high polyreactivity
QVQLVESCGGLVQAGGSLRLSCAASGSTFAVNVMGWYRQAPGKERELDATITYRDGRTYYADSVKGRFTISRDNAKNTVYVQMNSLKPEVTALYYCAADWYTTYDYWGQGTQVTVSS	polyreactivity (PSR sort gate)	low polyreactivity
QVQLVESGGGLVQAGGSLRLSCAASGSIFGSYAMGWYRQAPGKERELVAVITSSGNTKYADSVKGRFTISRDNAKNTVYLQMNSLKPEDTAVYYCAARFITWGSQYSFRSMDYWGQGTQVTVSS	polyreactivity (PSR sort gate)	high polyreactivity
QVQLVESGGGLVQAGGSLRLSCAASGSIFRIYAMGWYRQAPGKERELVAGISKSGGSTYYADSVKGRFTISRDNAKNTVYLQMNSLKPEDTAVYYCNARRPSWGLDKYDYWGQGTQVTVSS	polyreactivity (PSR sort gate)	low polyreactivity
QVQLVESGGGLVQAGGSLRLSCAASGRTFFPYAMGWYRPAPGKERELVAAITRSGSTYYADSVKGRFTISRDNAKNTVYLQMNSLKPEDTAVYYCAADYSPWRSDFDYWGQGTQVTVSS	polyreactivity (PSR sort gate)	low polyreactivity
QVQLVESGGGLVQAGGSLRLSCAASGFTLDSNALGWYRQAPGKERELVAAISWDDGSTYYADSVKGRFTISRDNAKNTVYLQMNSLKPEDTAVYYCAADASDVYGDRPWFHYYWGYDYWGQGTQVTVSS	polyreactivity (PSR sort gate)	low polyreactivity
QVQLVESGGGLVQAGGSLRLSCAASGRTFTYYAMGWYRQAPGKERELVAAIRYTGGSTHYADSVKGRFTISRDNAKNTVYLQMNSLKPEDKAVYYCAARRAYTRGGTVYFGYYYWGQGTQVTVSS	polyreactivity (PSR sort gate)	high polyreactivity
QVQLVESGGGLVQAGGSLRLSCAASGRTFAYYTMGWYRQAPGKERELVDAISSRGGRTYYADSVKGRFTISRDNAKNTVYLQMNSLKPEDTAVYYCAAVSHGVYYQYRRRYYSWGQGTQVTVSS	polyreactivity (PSR sort gate)	high polyreactivity
QVQLVESGGGLVQAGGSLRLSCAASGRIFYGYTMGWYRQAPGKERELVASITIRGSRTYYADSVKGRFTISRDNAKNSVYLQMNSLKPEDTAVYYCAADFVPARTVHRYDYWGQGTQVTVSS	polyreactivity (PSR sort gate)	low polyreactivity
